Test system: LOX IMVI melanoma
Assay: NCI tumour cell line growth inhibition, 48 h
QUANTITY: TGI

Task: Fill in: TGI on LOX IMVI melanoma, entry CCOC(=O)C(C(=O)OCC)C(=S)NC1OC(COC(C)=O)C(OC(C)=O)C(OC(C)=O)C1OC(C)=O (centres undefined)
Result: > 100 µM

Task: Provide LOX IMVI melanoma TGI reading for "C[C@@H](Br)[C@@H]1CC[C@H]2c3[nH]c4ccccc4c3CCN2C1" .
Result: 32.9 µM

Task: Write down measured TGI (LOX IMVI melanoma) for this molecule. Cc1cccc(C)c1NC(=O)/C(CC(=O)CC(c1ccccc1)c1c(O)c2ccccc2oc1=O)=N/O (centres undefined)
Result: > 100 µM

Task: Report TGI on LOX IMVI melanoma for this entry: "C=C(C)[C@H]1C=C[C@@H](OC(C)=O)[C@@]2(COC(C)=O)[C@H](OC(=O)CCC)[C@H]3[C@@H](OC(C)=O)[C@@H](C)C[C@]3(O)C(=O)[C@@](C)(OC(C)=O)[C@H]12"
Result: > 100 µM

Task: Lab note: LOX IMVI melanoma assay, enter TGI for "COc1ccc(/C=C/c2cnnc3ccccc23)cc1OC" here
Result: > 10 µM

Task: Lab note: LOX IMVI melanoma assay, enter TGI for "CN1CCN2CCN(C)CCN(CC1)CC2" here
Result: > 100 µM

Task: GET TGI where system = LOX IMVI melanoma and item = O=[N+]([O-])c1cc(C2ON=C(c3ccccc3)N2C23CC4CC(CC(C4)C2)C3)ccc1Cl (centres undefined)
Result: > 100 µM

Task: Specify the recorded TGI for "COc1ccc(OC/C(N=Cc2cccnc2)=N/NC(=O)c2ccncc2)cc1" , system: LOX IMVI melanoma.
Result: > 100 µM

Task: Please look at [B]C(=O)NC(CC(C)C)C(=O)NC1c2ccsc2C(=O)C1O (centres undefined) (tested in a mixture with another compound) and tell me its recorded TGI on LOX IMVI melanoma.
Result: > 100 µM

Task: Give TGI for "O=c1c(-c2nc3ccccc3[nH]2)cc2ccccc2n1Cc1cn(Cc2ccc(F)cc2)nn1" tested on LOX IMVI melanoma.
Result: > 100 µM

Task: Please report the measured TGI for CC(=O)Oc1cc(OC(C)=O)c(OC(C)=O)c2c1CC1C(=O)C3(CCc4ccccc43)C(=O)C1C2 (centres undefined) tested on LOX IMVI melanoma.
Result: 26.2 µM

Task: System LOX IMVI melanoma. Read-out TGI. Item "COc1ccc([C@H]2C=C(c3cc(F)c(Cl)cc3Cl)N=c3s/c(=C\c4ccc(-c5ccc(Cl)cc5Cl)o4)c(=O)n32)cc1" . Report value.
Result: > 100 µM

Task: GET TGI | system: LOX IMVI melanoma | item: C[C@]12CC[C@H](O)CC1CCC[C@@H]2O (some centres undefined)
Result: > 100 µM

Task: Fill in: TGI on LOX IMVI melanoma, entry COc1ccc(-c2c(C#N)c(N)n(C3OC(COC(C)=O)C(OC(C)=O)C(OC(C)=O)C3OC(C)=O)c(=S)c2C#N)cc1 (centres undefined)
Result: > 100 µM

Task: State TGI on LOX IMVI melanoma. Entry: "Nc1nc(-c2ccccc2Cl)cc(-c2ccc(Cl)cc2Cl)n1"
Result: > 100 µM

Task: Provide TGI, system LOX IMVI melanoma, entry "CC(=O)O[C@H]1CC[C@@]2(C)[C@@H](CC[C@@H]3[C@@H]2CC(=O)[C@@]2(C)[C@H]3C[C@@H]3CC(C)=CC(=O)[C@@H]32)C1"
Result: > 100 µM

Task: Using LOX IMVI melanoma as the test system, report measured TGI of "COc1cc(-c2cc(C(=O)N3CCN(C(=O)c4ccccc4NCc4cccs4)CC3)nc3cc(-c4ccccc4)nn23)cc(OC)c1OC" .
Result: > 100 µM

Task: State the measured TGI (LOX IMVI melanoma) of CC(NC(=O)C1(N)CCCC1)C(=O)O (centres undefined)
Result: > 100 µM

Task: Retrieve TGI on LOX IMVI melanoma; query "O=C(/C=C/c1ccco1)c1cccc(Nc2nc(Nc3ccccc3)nc(Nc3ccccc3)n2)c1"
Result: > 100 µM
